protocol_notes: Toxicokinetics in plasma after oral administration of bracken extract or dried bracken fern
Type: in vivo, Jersey heifers
condition: female, Jersey, bovine, plasma, po, 1.03 μmoles kg^-1, PTB in plasma, oral bracken extract, PTA dose 1.03 μmoles kg^-1, heifer no 4849; read-out: λz terminal slope (converted)
observable: k el (s⁻¹)

>>> numeric_result("Cc1cc2c(c(C)c1CCO)C(=O)[C@H](C)C2 [PTB, pterosin B]")
"2.78e-05"

---

protocol_notes: Toxicokinetics in plasma after oral administration of bracken extract or dried bracken fern
Type: in vivo, Jersey heifers
condition: female, Jersey, bovine, plasma, po, 4.02 μmoles kg^-1, PTB in plasma, oral dried bracken, PTA dose 4.02 μmoles kg^-1, heifer no 4848; read-out: λz terminal slope (converted)
Description: Two heifers (no’s 4848 and 4849) were used in a series of five experiments (Table 1) in a cross-over design including intravenous administration of pure PTA, oral administration of bracken extract and oral administration of dried bracken fern. At least 2 weeks elapsed between each experiment. Oral exposure, bracken extract. […] Concentrations of PTA in plasma of individual animals were evaluated by non-compartmental analysis. Toxicokinetic variables were calculated using standard kinetic equations. […]
observable: k el

>>> result("Cc1cc2c(c(C)c1CCO)C(=O)[C@H](C)C2")
"8.56e-05 s⁻¹"

---

protocol_notes: Toxicokinetics in plasma after oral administration of bracken extract or dried bracken fern
Format: in vivo, Jersey heifers
condition: female, Jersey, bovine, plasma, po, 4.02 μmoles kg^-1, PTB in plasma, oral dried bracken, PTA dose 4.02 μmoles kg^-1, heifer no 4848; read-out: Cmax maximum concentration
observable: Cmax (nM)

>>> numeric_result("Cc1cc2c(c(C)c1CCO)C(=O)[C@H](C)C2")
182

---

protocol_notes: Toxicokinetics of PTA and PTB in plasma after intravenous administration of PTA
Type: in vivo, Jersey heifers
condition: female, Jersey, bovine, plasma, iv, 0.231 μmoles kg^-1, iv PTA 0.231 μmoles kg^-1, heifer no 4848, head prints Experiment 2; read-out: MRT mean residence time
observable: MRT (h)

>>> numeric_result("CC1=C[C@]2(O[C@@H]3O[C@H](CO)[C@@H](O)[C@H](O)[C@H]3O)C[C@@H](C)C(=O)[C@@H]2[C@](C)(O)C12CC2 [PTA]")
2.04

---

protocol_notes: Toxicokinetics of PTA and PTB in plasma after intravenous administration of PTA
Format: in vivo, Jersey heifers
condition: female, Jersey, bovine, plasma, iv, 0.141 μmoles kg^-1, iv PTA 0.141 μmoles kg^-1, heifer no 4849, head prints Experiment 2; read-out: MRT mean residence time
Description: Two heifers (no’s 4848 and 4849) were used in a series of five experiments (Table 1) in a cross-over design including intravenous administration of pure PTA, oral administration of bracken extract and oral administration of dried bracken fern. […] Intravenous administration of PTA. […] Urine was collected quantitatively in urinary bags (Ratiomed GmBH, München, Germany) through a Foley catheter (Rusch Silasil no 16; Teleflex, Milan, Italy) inserted into the bladder. […]
observable: MRT

>>> result("CC1=C[C@]2(O[C@@H]3O[C@H](CO)[C@@H](O)[C@H](O)[C@H]3O)C[C@@H](C)C(=O)[C@@H]2[C@](C)(O)C12CC2")
"2.48 h"

---

protocol_notes: Toxicokinetics in plasma after oral administration of bracken extract or dried bracken fern
Format: in vivo, Jersey heifers
condition: female, Jersey, bovine, plasma, po, 4.02 μmoles kg^-1, PTB in plasma, oral dried bracken, PTA dose 4.02 μmoles kg^-1, heifer no 4849; read-out: λz terminal slope (converted)
observable: k el (s⁻¹)

>>> numeric_result("Cc1cc2c(c(C)c1CCO)C(=O)[C@H](C)C2 [PTB, pterosin B]")
"7.78e-05"

---

protocol_notes: Toxicokinetics of PTA and PTB in plasma after intravenous administration of PTA
Type: in vivo, Jersey heifers
condition: female, Jersey, bovine, plasma, iv, 0.527 μmoles kg^-1, iv PTA 0.527 μmoles kg^-1, heifer no 4848, Experiment 1; read-out: Vss apparent volume of distribution at steady-state
observable: Vd

>>> result("CC1=C[C@]2(O[C@@H]3O[C@H](CO)[C@@H](O)[C@H](O)[C@H]3O)C[C@@H](C)C(=O)[C@@H]2[C@](C)(O)C12CC2 [PTA]")
"1.14 L/kg"

---

protocol_notes: Toxicokinetics in plasma after oral administration of bracken extract or dried bracken fern
Format: in vivo, Jersey heifers
condition: female, Jersey, bovine, plasma, po, 1.03 μmoles kg^-1, PTB in plasma, oral bracken extract, PTA dose 1.03 μmoles kg^-1, heifer no 4848; read-out: λz terminal slope (converted)
observable: k el (s⁻¹)

>>> numeric_result("Cc1cc2c(c(C)c1CCO)C(=O)[C@H](C)C2 [PTB, pterosin B]")
"6.5e-05"

---

protocol_notes: Toxicokinetics of PTA and PTB in plasma after intravenous administration of PTA
Assay type: in vivo, Jersey heifers
condition: female, Jersey, bovine, plasma, iv, 0.21 mg/kg, iv PTA 0.21 mg kg^-1 b.w., average of two heifers; read-out: apparent volume of distribution at steady state (Vss)
observable: Vd

>>> result("CC1=C[C@]2(O[C@@H]3O[C@H](CO)[C@@H](O)[C@H](O)[C@H]3O)C[C@@H](C)C(=O)[C@@H]2[C@](C)(O)C12CC2 [PTA]")
"~1.3 L/kg"

---

protocol_notes: Toxicokinetics in plasma after oral administration of bracken extract or dried bracken fern
Assay type: in vivo, Jersey heifers
condition: female, Jersey, bovine, plasma, po, 4.02 μmoles kg^-1, PTB in plasma, oral dried bracken, PTA dose 4.02 μmoles kg^-1, heifer no 4848; read-out: Tmax time at maximum concentration
observable: Tmax (min)

>>> numeric_result("Cc1cc2c(c(C)c1CCO)C(=O)[C@H](C)C2 [PTB, pterosin B]")
30

---

protocol_notes: Toxicokinetics of PTA and PTB in plasma after intravenous administration of PTA
Assay type: in vivo, Jersey heifers
condition: female, Jersey, bovine, plasma, iv, 0.141 μmoles kg^-1, iv PTA 0.141 μmoles kg^-1, heifer no 4849, head prints Experiment 2; read-out: Vss apparent volume of distribution at steady-state
observable: Vd (L/kg)

>>> numeric_result("CC1=C[C@]2(O[C@@H]3O[C@H](CO)[C@@H](O)[C@H](O)[C@H]3O)C[C@@H](C)C(=O)[C@@H]2[C@](C)(O)C12CC2 [PTA]")
0.83

---

protocol_notes: Toxicokinetics in plasma after oral administration of bracken extract or dried bracken fern
Assay type: in vivo, Jersey heifers
condition: female, Jersey, bovine, plasma, po, 1.03 μmoles kg^-1, PTB in plasma, oral bracken extract, PTA dose 1.03 μmoles kg^-1, heifer no 4849; read-out: Cmax maximum concentration
observable: Cmax (nM)

>>> numeric_result("Cc1cc2c(c(C)c1CCO)C(=O)[C@H](C)C2 [PTB, pterosin B]")
43

---

protocol_notes: Toxicokinetics in plasma after oral administration of bracken extract or dried bracken fern
Format: in vivo, Jersey heifers
condition: female, Jersey, bovine, plasma, po, 5.02 μmoles kg^-1, PTB in plasma, oral bracken extract, PTA dose 5.02 μmoles kg^-1, heifer no 4848; read-out: λz terminal slope (converted)
observable: k el (s⁻¹)

>>> numeric_result("Cc1cc2c(c(C)c1CCO)C(=O)[C@H](C)C2")
0.000106
